Tested on: HeLa cervical adenocarcinoma cells
Assay: Antiproliferative activity, SRB assay
Assay type: cell-based, human
Conditions: SRB assay, 24 h treatment, 72 h recovery
Procedure: The antiproliferative activity against human A549 lung, IGROV-1 ovarian, and HeLa cervical cancer cell lines and MRC5 normal lung fibroblasts was determined by the sulforhodamine B (SRB) assay. […] Cells were seeded at 5 × 10^3 cells per well and incubated at 310 K for 48 h. […] Cell viability was then determined by the SRB colorimetric assay. The solubilised dye absorbance was analysed on a microplate reader (Thermo Scientific Multiskan FC with Scanit software 4.1) at 470 nm. […]
Listed molecules paired with reported IC50

Cc1ccc(C(C)C)cc1.O=C1C[NH][Ru]([Cl])[O]1 [Ru-Gly, [(p-cymene)Ru(Gly)Cl]] | > 200 µM

Next molecule, please.
INPUT: Would you kindly share the measured IC50 for Cc1ccc(C(C)C)cc1.O=C1C[NH][Os]([Cl])[O]1 [Os-Gly, [(p-cymene)Os(Gly)Cl]] ?
OUTPUT: > 200 µM
